Test system: Yersinia pseudotuberculosis
Assay: Effect on T3S in Yersinia pseudotuberculosis 3 pIB29 assessed as inhibition of light emission at 20 uM by luciferase reporter gene assay
readout kind: inhibition (%)

| input smiles | assay system | quantitative result |
| --- | --- | --- |
| CC(=O)Oc1c(I)cc(I)cc1C(=O)Nc1ccc(Br)cc1 | Yersinia pseudotuberculosis | 86 |
| CC(C)(C)c1ccc(NC(=O)c2c(O)c(Cl)cc(Cl)c2Cl)cc1 | Yersinia pseudotuberculosis | 28 |
| O=C(Nc1ccc(SC(F)(F)F)cc1)c1c(O)c(Cl)cc(Cl)c1Cl | Yersinia pseudotuberculosis | 68 |
| O=C(Nc1ccccc1F)c1cc(Br)cc(Br)c1O | Yersinia pseudotuberculosis | 29 |
